Collagen 1A1 (Normalized Expression) Mean listing for selected substances.
- Test system: UUO model of kidney fibrosis
- EXPERIMENT SUMMARY: Unilateral ureteral obstruction (UUO) model of kidney fibrosis: kidney collagen 1A1 and collagen 3A1 expression by real-time PCR
- Assay type: in vivo, mice
- CONDITION CONTEXT: Table K; group mean; UUO mice, 20 mg/kg at days -3, -1, +5; kidney at day 11; UUO-PBS mean 114.9
REPORTED PROPERTY: Collagen 1A1 (Normalized Expression) Mean

{"columns": ["SUBSTANCE", "ENDPOINT VALUE"],
 "data": [
  ["AECSATCSAGTCSTGAUSAAGCSTAE (ACATCAGTCTGATAAGCTA; modified nucleosides, phosphorothioate linkages, chemistry not fully specified) [Compound 25070]", 81.0],
  ["TE^MeCAACSATCSAGTCSTGAUSAAGCSTAE (TCAACATCAGTCTGATAAGCTA; modified nucleosides with 5-methyl C, code letters not given here, further chemistry not given here) [Compound 25082]", 91.7],
  ["TE^MeCEAEAECSAETECSAEGETECSTEGEAEUSAEAEGECSTEAE (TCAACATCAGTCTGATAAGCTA; modified nucleosides and phosphorothioate, code letters not given here, further chemistry not given here) [Compound 25068]", 96.4]
]}

---

- Tested on: miR-21
- EXPERIMENT SUMMARY: miR-21 luciferase sensor assay in Hela cells
- Assay type: cell-based
- CONDITION CONTEXT: concentration of anti-miR compound 0.2 (unit not given)
Strand notation (5' to 3'): a small letter for the sugar, then the base; units joined by * are phosphorothioate-linked, units joined directly phosphodiester-linked; [ ] holds rarer units or linkages, { } end groups; capitals alone tell only the bases. e = 2'-O-(2-methoxyethyl) (MOE); l = locked nucleic acid (LNA); k = constrained ethyl (cEt); [5mC] = 5-methylcytosine; d = 2'-deoxy (DNA)
Reported fold change in luciferase value relative to the mock treatment values for a set of substances
REPORTED PROPERTY: fold change in luciferase value relative to the mock treatment (fold change)

{"columns": ["SUBSTANCE", "UNITS TEXT", "ENDPOINT VALUE"],
 "data": [
  ["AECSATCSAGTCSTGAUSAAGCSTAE (ACATCAGTCTGATAAGCTA; modified nucleosides, phosphorothioate linkages, chemistry not fully specified) [Compound 25070]", "fold change", 1.04],
  ["AE^MeCLAETE^MeCLAEGETE^MeCLTEGEAE^MeTLAEAEGE^MeCLTEAE (antisense eA*l[5mC]*eA*eT*l[5mC]*eA*eG*eT*l[5mC]*eT*eG*eA*lT*eA*eA*eG*l[5mC]*eT*eA) [Compound 25117, variation of 25070: each non-bicyclic nucleoside is 2′-MOE, each cytosine 5-methyl cytosine]", "fold change", 1.05],
  ["AECSATCSAGTCSTGAUSAAGCSTAS (antisense ACATCAGTCTGATAAGCTA; cEt and 2'-MOE nucleosides, code letters not given here, further chemistry not given here) [Compound 25923, variation of 25070: 3′-terminal nucleoside is a cEt nucleoside rather than 2′-MOE nucleoside]", "fold change", 1.06],
  ["AE^MeCSAT^MeCSAGT^MeCSTGATSAAG^MeCSTAS (antisense eA*k[5mC]*dA*dT*k[5mC]*dA*dG*dT*k[5mC]*dT*dG*dA*kT*dA*dA*dG*k[5mC]*dT*kA; further chemistry not given here) [Compound 25924, variation of 25070: 3′-terminal cEt nucleoside and each cytosine is a 5-methyl cytosine]", "fold change", 1.10],
  ["AE^MeCSAETE^MeCSAEGETE^MeCSTEGEAE^MeTSAEAEGE^MeCSTEAE (antisense eA*k[5mC]*eA*eT*k[5mC]*eA*eG*eT*k[5mC]*eT*eG*eA*kT*eA*eA*eG*k[5mC]*eT*eA; further chemistry not given here) [Compound 25116, variation of 25070: each non-bicyclic nucleoside is 2′-MOE, each cytosine 5-methyl cytosine]", "fold change", 1.06],
  ["AE^MeCSAT^MeCSAGT^MeCSTGATSAAG^MeCSTAE (antisense ACATCAGTCTGATAAGCTA; MOE ends, cEt, 5-methyl C, unmarked nucleosides not given here, further chemistry not given here) [Compound 25922, variation of 25070: each cytosine is a 5-methyl cytosine]", "fold change", 1.02]
]}

---

- Test system: miR-21
- EXPERIMENT SUMMARY: miR-21 luciferase sensor assay in Hela cells
- Assay type: cell-based
- CONDITION CONTEXT: 100 nM oligonucleotide; Hela cells
Cut-off 100 on luciferase value normalized to beta-galactosidase activity: below means Met, at or above means Not met.

{"columns": ["SUBSTANCE", "TESTED SYSTEM", "CAT"],
 "data": [
  ["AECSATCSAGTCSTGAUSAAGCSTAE (ACATCAGTCTGATAAGCTA; modified nucleosides, phosphorothioate linkages, chemistry not fully specified) [Compound 25070]", "miR-21", "Not met"],
  ["AECSAETECSAEGETECSTEGEAEUSAEAEGECSTEAE (ACATCAGTCTGATAAGCTA; anti-miR; sugar and backbone modifications, code letters not given here, further chemistry not given here) [Compound 25072]", "miR-21", "Not met"],
  ["Te^MeCASA^MeCAST^MeCAGST^MeCTGASTAAGS^MeCTAe (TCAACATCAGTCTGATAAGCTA; cEt, 5-methyl C and phosphorothioate modifications, code letters not given here, further chemistry not given here) [Compound 25067]", "miR-21", "Met"],
  ["UECEAFAFCFAFUFCFAFGFUFCEUEGEAFUFAFAFGFCFUEAE (antisense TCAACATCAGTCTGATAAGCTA; listed as DNA, chemistry not fully specified) [Compound 25919, reference compound]", "miR-21", "Not met"],
  ["TE^MeCAACSATCSAGTCSTGAUSAAGCSTAE (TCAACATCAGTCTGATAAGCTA; modified nucleosides with 5-methyl C, code letters not given here, further chemistry not given here) [Compound 25082]", "miR-21", "Not met"],
  ["Ae^MeCAST^MeCAGST^MeCTGASTASAGS^MeCTAe (ACATCAGTCTGATAAGCTA; listed as DNA, chemistry not fully specified) [Compound 25071]", "miR-21", "Met"]
]}

---

Measured fold change in luciferase value relative to the mock treatment, listed per entry.
- Tested on: miR-21
- EXPERIMENT SUMMARY: miR-21 luciferase sensor assay in Hela cells
- Type: cell-based
- CONDITION CONTEXT: concentration of anti-miR compound 5.6 (unit not given)
Strand notation (5' to 3'): a small letter for the sugar, then the base; units joined by * are phosphorothioate-linked, units joined directly phosphodiester-linked; [ ] holds rarer units or linkages, { } end groups; capitals alone tell only the bases. e = 2'-O-(2-methoxyethyl) (MOE); k = constrained ethyl (cEt); [5mC] = 5-methylcytosine; d = 2'-deoxy (DNA)
REPORTED PROPERTY: fold change in luciferase value relative to the mock treatment (fold change)

{"columns": ["SUBSTANCE", "ENDPOINT VALUE"],
 "data": [
  ["AE^MeCSAT^MeCSAGT^MeCSTGATSAAG^MeCSTAS (antisense eA*k[5mC]*dA*dT*k[5mC]*dA*dG*dT*k[5mC]*dT*dG*dA*kT*dA*dA*dG*k[5mC]*dT*kA; further chemistry not given here) [Compound 25924, variation of 25070: 3′-terminal cEt nucleoside and each cytosine is a 5-methyl cytosine]", 7.80],
  ["AECSATCSAGTCSTGAUSAAGCSTAS (antisense ACATCAGTCTGATAAGCTA; cEt and 2'-MOE nucleosides, code letters not given here, further chemistry not given here) [Compound 25923, variation of 25070: 3′-terminal nucleoside is a cEt nucleoside rather than 2′-MOE nucleoside]", 5.18],
  ["AE^MeCSAETE^MeCSAEGETE^MeCSTEGEAE^MeTSAEAEGE^MeCSTEAE (antisense eA*k[5mC]*eA*eT*k[5mC]*eA*eG*eT*k[5mC]*eT*eG*eA*kT*eA*eA*eG*k[5mC]*eT*eA; further chemistry not given here) [Compound 25116, variation of 25070: each non-bicyclic nucleoside is 2′-MOE, each cytosine 5-methyl cytosine]", 2.47]
]}

---

- System: miR-21
- EXPERIMENT SUMMARY: miR-21 luciferase sensor assay in Hela cells
- Assay type: cell-based
- CONDITION CONTEXT: 500 nM oligonucleotide; Hela cells; two experimental replicates
REPORTED PROPERTY: luciferase value normalized to beta-galactosidase activity

{"columns": ["SUBSTANCE", "ENDPOINT VALUE"],
 "data": [
  ["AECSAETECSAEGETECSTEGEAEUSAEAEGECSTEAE (ACATCAGTCTGATAAGCTA; anti-miR; sugar and backbone modifications, code letters not given here, further chemistry not given here) [Compound 25072]", 143],
  ["TE^MeCEAEAECSAETECSAEGETECSTEGEAEUSAEAEGECSTEAE (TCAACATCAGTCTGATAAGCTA; modified nucleosides and phosphorothioate, code letters not given here, further chemistry not given here) [Compound 25068]", 122],
  ["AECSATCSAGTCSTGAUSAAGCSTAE (ACATCAGTCTGATAAGCTA; modified nucleosides, phosphorothioate linkages, chemistry not fully specified) [Compound 25070]", 165]
]}
